These data points were gathered from PubChem BioAssay (NCATS).

biological target: Guanidinoacetate N-methyltransferase (Homo sapiens) (UniProt Q14353); test: Confirmatory Screen for Target Class Profiling of Small Molecule Inhibitors of Methyltransferases (AID 1745852); details: MTase-Glo luminescence, SAH detection, recombinant enzyme; at 57.3 µM (top of the series) unless noted; also: % is scaled to controls: 0 for no effect and ±100 for the full control effect
Quick list: activity change, negative = inhibition per entry.
recorded metric: activity change, negative = inhibition (%)

{"molecule": "CC1=CC(=O)C2C(C)(C)CCCC2(C)C12CCC1(COC(=O)C1)O2 (centres undefined)", "reported": 2.41}
{"molecule": "COCCN(C)Cc1ccc2nc3sc(C(=O)N(C)C4CCCCC4)cn3c2c1", "reported": 0}
{"molecule": "CC(CCC1C(C(=O)O)=CC(=O)CC1(C)C)O[C@@H]1O[C@H](CO)[C@@H](O)[C@H](O)[C@H]1O (some centres undefined)", "reported": -6.33}

====

system: NIH3T3; experiment: Cytotoxic Profiling of Annotated Libraries Using Quantitative High-Throughput Screening (AID 1296008); conditions: Five cell lines viability, CellTiter-Glo ATP luminescence, 48-72 h; stronger effect = lower value; also: nearly all actives have a fitted effect of over 60% in size; as to max response: % is scaled to controls: 0 for no effect and ±100 for the full control effect
Results filed as inconclusive are left out. Where a SMILES comes first, the peptide text is derived from it. Bridges are numbered along the chain shown (N, C = ends). [ ]: non-standard residue; d: D form. The star is where a group is joined. X1 = CCC(C)C(N)C1=NC(C(=O)*)CS1; dOrn = NCCC[C@@H](N)C(=O)O
recorded metric: max response (%)

{"compound": "CC1(C)CC[C@]2(C(=O)O)CC[C@]3(C)C(=CCC4[C@@]5(C)CCC(O[C@@H]6OC[C@H](O)[C@H](O)[C@H]6O[C@@H]6O[C@H](CO)[C@@H](O)[C@H](O)[C@H]6O)[C@@](C)(CO)C5CC[C@]43C)[C@@H]2C1 (stereo partly specified)", "system name": "NIH3T3", "reported": 2.38}
{"compound": "COc1cc(/C=C/C(=O)OC[C@H]2O[C@H](O[C@]3(CO)O[C@H](CO)[C@@H](O)[C@@H]3O)[C@H](O)[C@@H](O)[C@@H]2O)cc(OC)c1O", "system name": "NIH3T3", "reported": -20.7}
{"compound": "O=C(/C=C/c1ccc(O)cc1)OCC1=CC2OC(=O)C3=CO[C@@H](O[C@@H]4O[C@H](CO)[C@@H](O)[C@H](O)[C@H]4O)[C@H]1[C@@H]32 (stereo partly specified)", "system name": "NIH3T3", "reported": -2.28}
{"compound": "CC[C@H]1OC(=O)[C@H](C)[C@@H](O[C@H]2C[C@@](C)(OC)[C@@H](O)[C@H](C)O2)[C@H](C)[C@@H](O[C@@H]2O[C@H](C)C[C@H](N(C)C)[C@H]2O)[C@@](C)(O)C[C@@H](C)[C@@H]2N[C@@H](COCCOC)OC([C@H]2C)[C@]1(C)O", "system name": "NIH3T3", "reported": -6.11}
{"compound": "CCC(C)C(N)C1=NC(C(=O)N[C@@H](CC(C)C)C(=O)N[C@H](CCC(=O)O)C(=O)N[C@H](C(=O)N[C@H]2CCCCNC(=O)[C@H](CC(N)=O)NC(=O)[C@@H](CC(=O)O)NC(=O)[C@H](Cc3cnc[nH]3)NC(=O)[C@@H](Cc3ccccc3)NC(=O)[C@H]([C@@H](C)CC)NC(=O)[C@@H](CCCN)NC2=O)[C@@H](C)CC)CS1 (stereo partly specified) (X1-L[dE]IK[dOrn]I[dF]H[dD]N; lactam 4-C)", "system name": "NIH3T3", "reported": 2.78}
{"compound": "C=CC(C)(O)CO[C@@H]1O[C@H](CO)[C@@H](O)[C@H](O)[C@H]1O (stereo partly specified)", "system name": "NIH3T3", "reported": -4.31}
{"compound": "COc1cc2c(cc1O)C1(OC)Cc3ccc4c(c3C1N(C)CC2)OCO4 (stereo unspecified)", "system name": "NIH3T3", "reported": 2.76}
{"compound": "CCC(C)/C=C(C)/C=C/C1=CC2=C(Cl)C(=O)C(C)(OC(C)=O)C(=O)C2=CN1C1CCCCN(C(CCC(N)=O)C(=O)O)C1=O (stereo unspecified)", "system name": "NIH3T3", "reported": -1.04}
{"compound": "C=CC1(C)C=C2C(=O)CC3C(C)(C)CCCC3(C(=O)O)C2(O)CC1 (stereo unspecified)", "system name": "NIH3T3", "reported": -3.47}
{"compound": "O=C(OCC12OC1C=CC(OC(=O)c1ccccc1)C2O)c1ccccc1 (stereo unspecified)", "system name": "NIH3T3", "reported": -13.1}
{"compound": "C[C@@H]1O[C@@H](OC[C@H]2O[C@@H](OCC3CCC4CC3C4(C)C)[C@H](O)[C@@H](O)[C@@H]2O)[C@H](O)[C@H](O)[C@H]1O (stereo partly specified)", "system name": "NIH3T3", "reported": -1.43}

====

system: KB-3-1; assay: Cytotoxic Profiling of Annotated Libraries Using Quantitative High-Throughput Screening (AID 1296008); details: Five cell lines viability, CellTiter-Glo ATP luminescence, 48-72 h; also: nearly all actives have a fitted effect of over 60% in size
Results filed as inconclusive are left out. Active and inactive are the calls of the source. The call rests on the fitted dose curve; in most records, active means well fitted inhibition curve with a large enough effect; inconclusive means small, poorly fitted or top-dose-only effect; inactive means flat fitted curve, though single readings scatter. Where a SMILES comes first, the peptide text is derived from it. [ ]: non-standard residue; d: D form. ξ: configuration not given here. ξPhe(βξ-Me) = CC(c1ccccc1)C(N)C(=O)O; GABA = NCCCC(=O)O
recorded metric: outcome

{"compound": "CNC(=O)O[C@H]1COc2ccc(N3CCN(C4COC4)CC3)cc2[C@@H]1NC(=O)c1ccc(F)cc1", "recorded metric": "outcome", "reported": "inactive"}
{"compound": "COc1ccc(C)c2sc(NC(=O)c3ccncc3)nc12", "recorded metric": "outcome", "reported": "inactive"}
{"compound": "CC(=O)NC(CCC(=O)O)C(=O)NCCc1ccc(O)cc1 (stereo not given)", "recorded metric": "outcome", "reported": "inactive"}
{"compound": "COc1cccc(-n2nc(C(=O)O)cc2-c2ccc(C3CCCCC3)c(Cl)c2)c1", "recorded metric": "outcome", "reported": "inactive"}
{"compound": "CCN[C@@H]1C[C@H](N)[C@@H](O[C@H]2OC(CN)=CC[C@H]2N)[C@H](O)[C@H]1O[C@H]1OC[C@](C)(O)[C@H](NC)[C@H]1O", "recorded metric": "outcome", "reported": "inactive"}
{"compound": "CC1CC(O)C2(C)C(C(=O)O)=CCCC2C1(C)CCc1ccoc1 (stereo not given)", "recorded metric": "outcome", "reported": "inactive"}
{"compound": "C=C1[C@H]2CC[C@]3(O)[C@@](CC[C@@H]4[C@](C)(C(=O)O)CCC[C@]43C)(C2)[C@H]1OC(=O)/C(C)=C\\C", "recorded metric": "outcome", "reported": "inactive"}
{"compound": "C[C@@H]1CC[C@]2(C(=O)O)CC[C@]3(C)C(=CCC4[C@]5(C)C(CC[C@]43C)C(C)(C)[C@@H](O)[C@H](O)[C@@H]5O)C2[C@]1(C)O (stereo not given in full)", "recorded metric": "outcome", "reported": "inactive"}
{"compound": "Cc1ccc2c(c1)C=Cc1cc(C)ccc1C2c1cn(Cc2ccc(C(=O)Nc3nn[nH]n3)o2)c(=O)[nH]c1=S", "recorded metric": "outcome", "reported": "inactive"}
{"compound": "O=C(NCc1ccc(OC(F)(F)F)cc1)C1c2ccccc2C(=O)N1C1CCOCC1 (stereo not given)", "recorded metric": "outcome", "reported": "inactive"}
{"compound": "CC(C)CC1NC(=O)C(C(C)c2ccccc2)NC(=O)C(C(C)C)NC(=O)C(C)NC(=O)CCCNC(=O)C(Cc2c[nH]c3ccccc23)NC(=O)C(C)NC1=O (stereo not drawn) (cyclo([GABA]AV[ξPhe(βξ-Me)]LAW); configuration not given here)", "recorded metric": "outcome", "reported": "inactive"}
{"compound": "CC(C)CC(=O)O[C@@H]1OC=C(CO[C@@H]2O[C@H](CO[C@@H]3O[C@H](CO)[C@@H](O)[C@H](O)[C@H]3O)[C@@H](O)[C@H](O)[C@H]2O)[C@H]2C[C@H](O)[C@@H](CO)[C@@H]12", "recorded metric": "outcome", "reported": "inactive"}
{"compound": "CCC(C)/C=C(C)/C=C/C1=CC2=C(Cl)C(=O)C(C)(OC(C)=O)C(=O)C2=CN1CCCC(=O)O (stereo not given)", "recorded metric": "outcome", "reported": "inactive"}
{"compound": "CC(C)C1=CCC(C)(O)C(OC2OC(CO)C(O)C(O)C2O)C1 (stereo not given)", "recorded metric": "outcome", "reported": "inactive"}
{"compound": "C/C=C(\\C)C(=O)O[C@H]1[C@H](O)[C@]2(COC(C)=O)[C@H](O)C[C@]3(C)C(=CCC4[C@@]5(C)CC[C@H](O[C@@H]6O[C@H](C(=O)O)[C@@H](O[C@@H]7O[C@H](CO)[C@@H](O)[C@H](O)[C@H]7O)[C@H](O)[C@H]6O[C@@H]6O[C@H](CO)[C@@H](O)[C@H](O)[C@H]6O)[C@](C)(CO)C5CC[C@]43C)[C@@H]2CC1(C)C (stereo not given in full)", "recorded metric": "outcome", "reported": "inactive"}
